Reference source: paper PMC11542593

Give CC50 at 24 h for every item shown.
Assay: CellTiter-Glo luminescent cell viability assay (cytotoxicity)
Conditions: human, RD cells
The reply should contain only the number, in µM.

stdin: In one line, give reported CC50 at 24 h of the entry Cc1ccc(Nc2nccc(N(C)c3ccc4c(C)n(C)nc4c3)n2)cc1S(N)(=O)=O [Pazopanib] .
stdout: 226

stdin: In one line, give reported CC50 at 24 h of the entry CNC(=O)c1ccccc1Sc1ccc2c(/C=C/c3ccccn3)n[nH]c2c1 [Axitinib] .
stdout: 104

stdin: In one line, give reported CC50 at 24 h of the entry Cc1[nH]c(/C=C2\C(=O)Nc3ccc(F)cc32)c(C)c1C(=O)NC[C@H](O)CN1CCOCC1 [SU14813] .
stdout: 26.4
